test: Urinary excretion study in rats after oral NS, SF or CNS (LC–MS/MS); format: in vivo; settings: rat urine, oral CNS 110 mg/kg, 96 h
METRIC_NAME: Accumulative excretion percentage (%)
One number for each entry, in %.

These solved cases illustrate the format of a correct answer.
1) CC(C)=CCC[C@](C)(O[C@@H]1O[C@H](CO)[C@@H](O)[C@H](O)[C@H]1O)[C@H]1CC[C@]2(C)[C@@H]1[C@H](O)C[C@@H]1[C@@]3(C)CC[C@H](O)C(C)(C)[C@@H]3[C@@H](O[C@@H]3O[C@H](CO)[C@@H](O)[C@H](O)[C@H]3O[C@@H]3O[C@@H](C)[C@H](O)[C@@H](O)[C@H]3O)C[C@]12C [ginsenoside Re]    0.099
2) CC(C)=CCC[C@](C)(O[C@@H]1O[C@H](CO[C@@H]2O[C@H](CO)[C@@H](O)[C@H](O)[C@H]2O)[C@@H](O)[C@H](O)[C@H]1O)[C@H]1CC[C@]2(C)[C@@H]1[C@H](O)C[C@@H]1[C@@]3(C)CC[C@H](O[C@@H]4O[C@H](CO)[C@@H](O)[C@H](O)[C@H]4O[C@@H]4O[C@H](CO)[C@@H](O)[C@H](O)[C@H]4O)C(C)(C)[C@@H]3CC[C@]12C [ginsenoside Rb1]    0.038
3) CC(C)=CCC[C@](C)(O[C@@H]1O[C@H](CO)[C@@H](O)[C@H](O)[C@H]1O)[C@H]1CC[C@]2(C)[C@@H]1[C@H](O)C[C@@H]1[C@@]3(C)CC[C@H](O)C(C)(C)[C@@H]3[C@@H](O[C@@H]3O[C@H](CO)[C@@H](O)[C@H](O)[C@H]3O)C[C@]12C [ginsenoside Rg1]    0.292

For the next question, use this compound.
## Task # input compound: CC(C)=CCC[C@](C)(O[C@@H]1O[C@H](CO)[C@@H](O)[C@H](O)[C@H]1O)[C@H]1CC[C@]2(C)[C@@H]1[C@H](O)C[C@@H]1[C@@]3(C)CC[C@H](O[C@@H]4O[C@H](CO)[C@@H](O)[C@H](O)[C@H]4O[C@@H]4O[C@H](CO)[C@@H](O)[C@H](O)[C@H]4O)C(C)(C)[C@@H]3CC[C@]12C [ginsenoside Rd] ; wanted: its Accumulative excretion percentage
## Result 0.019
